- assayed_system: CYP2C9 (Homo sapiens)
- Construct: from tissue; host or cells: human liver microsomes
- Sequence (P11712 whole entry): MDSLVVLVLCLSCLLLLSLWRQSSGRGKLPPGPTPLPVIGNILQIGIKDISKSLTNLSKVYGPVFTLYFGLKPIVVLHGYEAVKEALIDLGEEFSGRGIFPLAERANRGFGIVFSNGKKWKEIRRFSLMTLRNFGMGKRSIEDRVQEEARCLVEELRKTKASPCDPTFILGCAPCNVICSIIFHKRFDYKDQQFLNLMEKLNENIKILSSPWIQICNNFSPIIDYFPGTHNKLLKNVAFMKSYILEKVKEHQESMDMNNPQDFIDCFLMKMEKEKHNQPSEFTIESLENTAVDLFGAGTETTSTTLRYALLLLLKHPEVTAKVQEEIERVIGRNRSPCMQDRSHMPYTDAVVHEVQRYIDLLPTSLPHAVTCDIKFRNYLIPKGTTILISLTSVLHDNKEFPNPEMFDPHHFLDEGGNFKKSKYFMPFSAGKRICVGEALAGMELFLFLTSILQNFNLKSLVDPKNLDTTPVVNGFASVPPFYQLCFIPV
- assay_method_text: Cytochrome P450 inhibition assay, CYP2C9
- Assay type: in vitro ADME
- study_conditions: human liver microsomes, pH 7.4, probe diclofenac (5 μM), 10 μM compound, human liver microsomes 0.25 mg/mL, substrate diclofenac, read-out: CYPs Direct Inhibition Mean (10 μM) 2C9
parameter: inhibition at 10 min, 10 µM

[in] Please give the measured inhibition at 10 min, 10 µM for this compound: `COc1ccc(C(C)C)cc1C1=C(CN(Cc2cc(C(F)(F)F)cc(C(F)(F)F)c2)c2nnn(CC(=O)O)n2)CC(C)(C)CC1`
[out] < 20%
